test system: CAKI-1; assay: NCI tumour cell line growth inhibition, 48 h
Activity calls are given as the source filed them. Rule as the data show it: active = GI50 up to about 1.1 µM and inactive = higher.
Examples of compounds with documented GI50 follow.

compound | experimental.target | GI50
Cc1ccc(S(=O)(=O)N/N=C2\C(=O)C3CC2C(Cl)C3Cl)cc1 (stereo not given) | CAKI-1 | > 100 µM (inactive)
CC1=C/C(=N\NC(N)=S)C(C(O)(C(F)(F)F)C(F)(F)F)C(C)(C)C1 (stereo not given) | CAKI-1 | > 10 µM (inactive)
COC(=O)Cc1cc(=O)n2c3ccccc3n(C)c2c1C#N | CAKI-1 | > 100 µM (inactive)
O=C(O)c1cccc(S(=O)(=O)NN2C(=O)CSC2c2c(O)ccc3ccccc23)c1 (stereo not given) | CAKI-1 | 25.5 µM (inactive)
Cc1cn([C@H]2CN(O)C[C@@H](CO)O2)c(=O)[nH]c1=O | CAKI-1 | > 100 µM (inactive)
Cc1nc(O)nc(N/N=C/c2ccc(Cl)c(Cl)c2)c1C(=O)Nc1ccc(Cl)c(Cl)c1 | CAKI-1 | 17.2 µM (inactive)
CC(=O)Oc1c(C)cc(-c2cc(C)c(OC(C)=O)c(C)c2)cc1C | CAKI-1 | 57.9 µM (inactive)
N=C(CC/C(N)=N/O)NO | CAKI-1 | > 100 µM (inactive)
COc1cc2cc3c4c(cc(OC)c(OC)c4c2cc1OC)CCN3C | CAKI-1 | 4.86 µM (inactive)
[C-]#[N+][C@@H]1C2[C@H](CC[C@@]1(C)O)C(=C)CC[C@@H]2[C@@]1(C)CC[C@H](Cl)C(C)(C)O1 (stereo not given in full) | CAKI-1 | 4.82 µM (inactive)

###

tested on: CCRF-CEM; assay: NCI tumour cell line growth inhibition, 48 h
Activity calls are given as the source filed them. Cut-off read from the data, not from the text of the source: active = GI50 up to about 1.1 µM and inactive = higher.
Outcomes: Yes (active), No (inactive)

compound | experimental.target | label.value
Nc1nc(N)c2ncn(-c3ccccc3)c2n1 | CCRF-CEM | No
Cc1cc(S(=O)(=O)Nc2nc3ccccc3nc2-c2ccc(Cl)cc2)c(S)cc1Cl | CCRF-CEM | No
C[n+]1c2ccccc2c(CNC(CS)C(=O)O)c2ccccc21 (stereo unspecified) | CCRF-CEM | No
Cc1ccc(C(=O)NC2C(=O)NC(C(C)C)C(=O)N3CCCC3C(=O)N(C)CC(=O)N(C)C(C(C)C)C(=O)OC2C)c2c1Oc1c(c(C(=O)NC3C(=O)NC(C(C)C)C(=O)N4CCCC4C(=O)N(C)CC(=O)N(C)C(C(C)C)C(=O)OC3C)c3nc(-c4ccccc4)c(=O)oc3c1C)N2 (stereo unspecified) | CCRF-CEM | Yes
C#CCOC(=O)C(N)CSSCC(N)C(=O)O (stereo unspecified) | CCRF-CEM | No
CC(=O)Nc1cccc(/N=N/N(C)C)c1 | CCRF-CEM | No
CC1(C)[N+]([O-])=[N+]([O-])C1(C)Br (stereo unspecified) | CCRF-CEM | No
CCN(CC)CCC(=O)Nc1ccc2sc3ccccc3c(=O)c2n1 | CCRF-CEM | No
Cc1cc(S(=O)(=O)Nc2nnc3ccccn23)c(S)cc1Cl | CCRF-CEM | No
O=C(OCc1c(-c2ccccc2)nn(-c2ccccc2)c1COC(=O)Oc1ccccc1)Oc1ccccc1 | CCRF-CEM | No
CN1CCOC(c2ccc(Cl)cc2)O1 (stereo unspecified) | CCRF-CEM | No
S=C1C(CCCOCc2ccccc2)C2CCCC23CC2(CCN13)OCCS2 (stereo unspecified) | CCRF-CEM | No
COc1cc(CC2c3cc(OC)c(OC)cc3CCN2C)c(Oc2cc3c(cc2OC)-c2c(OC)c(OC)c(OC)c4c2C(C3)N(C)CC4)cc1OC (stereo unspecified) | CCRF-CEM | No
CC(C)CCCC(C)[C@H]1CCC2[C@@H]3CCC4Nc5nocc5C[C@]4(C)C3CC[C@@]21C (stereo partly specified) | CCRF-CEM | No
NC(=O)C(=O)Cc1nc2ccccc2s1 | CCRF-CEM | No
CCCc1ccc(NCc2cc(OC)c(OC)c(OC)c2)cc1 | CCRF-CEM | No
CCOC(NC(=O)CC)(C(F)(F)F)C(F)(F)F | CCRF-CEM | No
CC(=O)OCC1=C(C(=O)O)C(c2ccc3c(c2)OCO3)c2cc3c(cc2O1)OCO3 (stereo unspecified) | CCRF-CEM | No
O=C(c1cccs1)N(C(=S)N1CCN(c2ccccc2)CC1)C1CCCCC1 | CCRF-CEM | No
COc1cc(C2SCC(=O)N2c2cc(Cl)c(Cl)cc2Cl)cc(OC)c1OC (stereo unspecified) | CCRF-CEM | No
O=c1c(C(c2ccc(Cl)cc2)c2c(O)c3ccccc3n(-c3ccccc3)c2=O)c(O)c2ccccc2n1-c1ccccc1 | CCRF-CEM | No
